test: growth inhibition of ugtP-null S. aureus, primary screen, RN4220 ugtP deletion, OD600 (AID 1259309); conditions: 16 h, hits give high values;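 note: plate controls were untreated wells for no effect and antibiotic for full effect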
Out of some 330,000 compounds screened, about 1,800 (0.55%) were called active. Many of the other results were omitted from the sample, so actives are more common in it than they were.
Reported growth inhibition values are given for each entry in this list.
Write it as a number; the unit % goes unstated.

# annotated cases, reported growth inhibition shown
{"compound": "Cc1nc2c(cnn2-c2ccccc2)c(=O)n1N=Cc1ccccc1", "measured-parameter": "growth inhibition", "units-label": "%", "observed": 6.82}
{"compound": "COc1ccccc1NC(=O)CC(C)=NNC(=O)c1ccccn1", "measured-parameter": "growth inhibition", "units-label": "%", "observed": 3.4}
{"compound": "COC(=O)C1=C(C(=O)OC)C2N(C)c3ccccc3[C@@]23CC(CO)N(C(=O)c2cccs2)C3=N1 (stereo not given in full)", "measured-parameter": "growth inhibition", "units-label": "%", "observed": 3.42}
{"compound": "CC(C)NC(=O)N(C)CC1Oc2ccc(NC(=O)Nc3ccc(C(F)(F)F)cc3)cc2CC(=O)N(C(C)CO)CC1C (stereo not given)", "measured-parameter": "growth inhibition", "units-label": "%", "observed": -1.09}
{"compound": "Cc1ccc(NC(=S)NN=C2CC(C)(C)Oc3ccc(O)cc32)cc1", "measured-parameter": "growth inhibition", "units-label": "%", "observed": -1.6}
{"compound": "CC(C)C(=NNc1ccccc1[N+](=O)[O-])c1ccccc1", "measured-parameter": "growth inhibition", "units-label": "%", "observed": 42.3}

Find the recorded growth inhibition belonging to CC(CC(=O)Nc1ccccn1)=NNC(=O)C(=O)Nc1cccc(C)c1 and report it. 3.99

Find the recorded growth inhibition belonging to O=C(NN=Cc1ccsc1)c1cc(-c2cccs2)nc2ccccc12 and report it. -4.48

Find the recorded growth inhibition belonging to Cc1nonc1NC(=O)CSc1nc2ccccc2cc1C#N and report it. -7.53

Find the recorded growth inhibition belonging to O=C(CNC(=O)c1ccco1)NN=Cc1ccc(O)cc1O and report it. 4.74
